assayed_system: human orexin-2 receptor (Homo sapiens, UniProt O43614)
Sequence (O43614 1-444): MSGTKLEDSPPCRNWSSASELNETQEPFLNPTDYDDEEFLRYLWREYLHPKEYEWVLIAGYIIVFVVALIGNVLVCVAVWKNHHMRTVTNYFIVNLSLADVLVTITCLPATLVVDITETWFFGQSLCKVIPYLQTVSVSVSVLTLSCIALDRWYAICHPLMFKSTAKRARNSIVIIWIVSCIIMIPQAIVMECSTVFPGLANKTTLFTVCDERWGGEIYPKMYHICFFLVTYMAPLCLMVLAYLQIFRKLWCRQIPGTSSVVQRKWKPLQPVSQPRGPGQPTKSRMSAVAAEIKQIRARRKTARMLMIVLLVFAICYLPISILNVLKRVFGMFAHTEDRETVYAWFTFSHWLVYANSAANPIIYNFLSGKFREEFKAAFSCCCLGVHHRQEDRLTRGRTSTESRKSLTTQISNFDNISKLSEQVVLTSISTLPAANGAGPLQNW
assay_explanation: Intracellular calcium measurements (FLIPR), orexin receptor antagonistic activity, OX2
condition_set: CHO cells expressing human orexin-2 receptor, 10 nM orexin-A as agonist
Please respond with 1 when measured IC50 is strictly beneath 200 nM, and with 0 in all other cases.

> print(dat)
                                   compound  category
1  Cc1nc(C(=O)N2C[C@H]3C[C@H]3[C@H]2CNC(=O)c2ccc(F)cc2)c(-c2cccc(F)c2)s1 (relative stereo)         1
2  O=C(c1ccccc1-c1ccccc1)N1C[C@H]2C[C@H]2[C@H]1CNc1ncc(Br)cn1 (relative stereo)         0
3  COc1ccc(-c2ocnc2C(=O)N2C[C@H]3C[C@H]3[C@H]2CNC(=O)c2cccc3occc23)cc1 (relative stereo)         1
4  COCCOc1cccc(-c2sc(C)nc2C(=O)N2C[C@H]3C[C@H]3[C@H]2CNC(=O)c2cccc3occc23)c1 (relative stereo)         1
5  Cc1cccc(-c2sc(C)nc2C(=O)N2C[C@H]3C[C@H]3[C@H]2CNC(=O)c2ccc(C)c(C(F)(F)F)c2)c1 (relative stereo)         1

----------
assayed_system: human orexin-1 receptor (Homo sapiens, UniProt O43613)
Sequence (O43613 1-425): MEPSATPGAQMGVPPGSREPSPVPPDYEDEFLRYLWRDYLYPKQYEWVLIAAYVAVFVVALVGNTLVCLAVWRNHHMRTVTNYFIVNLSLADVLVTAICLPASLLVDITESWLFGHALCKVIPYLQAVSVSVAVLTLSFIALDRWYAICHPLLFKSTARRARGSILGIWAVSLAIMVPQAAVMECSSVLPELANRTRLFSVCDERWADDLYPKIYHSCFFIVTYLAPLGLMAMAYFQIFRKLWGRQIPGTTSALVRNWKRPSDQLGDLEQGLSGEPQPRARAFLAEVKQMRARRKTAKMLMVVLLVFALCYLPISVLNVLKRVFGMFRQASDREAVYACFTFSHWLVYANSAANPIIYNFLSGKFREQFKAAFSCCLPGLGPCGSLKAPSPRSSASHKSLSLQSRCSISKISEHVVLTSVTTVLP
assay_explanation: Intracellular calcium measurements (FLIPR), orexin receptor antagonistic activity, OX1
condition_set: CHO cells expressing human orexin-1 receptor, 10 nM orexin-A as agonist
pIC50: −log10 of the molar value.
reported_metric: pIC50

> print(dat)
                                   compound  reported.metric  result
1  Cc1cccc(-c2sc(C)nc2C(=O)N2C[C@H]3C[C@H]3[C@H]2CNC(=O)c2cn(C)c3ccccc23)c1 (relative stereo)            pIC50    7.03
2  O=C(c1ccccc1-c1ccccc1)N1C[C@H]2C[C@H]2[C@H]1CNc1ncc(Br)cn1 (relative stereo)            pIC50    6.79
3  Cc1ccc(C(=O)N2C[C@H]3C[C@H]3[C@H]2CNC(=O)c2cccc3c2OCCO3)c(-c2ccc3c(c2)OCCO3)c1            pIC50    6.96
4  Cc1ccc(C(=O)N2C[C@H]3C[C@H]3[C@H]2CNC(=O)c2cccc3c2OCC3)c(-c2cccc(F)c2)c1            pIC50    6.46
5  Cc1cccc(-c2sc(C)nc2C(=O)N2C[C@H]3C[C@H]3[C@H]2CNC(=O)c2cccc3c2OCCN3C)c1 (relative stereo)            pIC50    6.63
6  Nc1nc(-c2ccccc2C(=O)N2C[C@H]3C[C@H]3[C@H]2CNC(=O)c2cccc3occc23)cs1 (relative stereo)            pIC50    5.92
7  Cc1cccc(-c2sc(C)nc2C(=O)N2C[C@H]3C[C@H]3[C@H]2CNC(=O)c2cccc3c2OC(C)(C)C3)c1 (relative stereo)            pIC50    6.88
8  Cc1nc2sccn2c1C(=O)NC[C@@H]1[C@@H]2C[C@@H]2CN1S(=O)(=O)c1ccccc1OC(F)(F)F (relative stereo)            pIC50    6.80
9  Cc1ccc(C(=O)N2C[C@H]3C[C@H]3[C@H]2CNC(=O)c2c3c(cc4c2OCC4)OCC3)c(-c2cccc(F)c2)c1 (relative stereo)            pIC50    6.71
